Source: ChEMBL document CHEMBL1143778

# test-target: UniProtKB P28335
# Sequence (P28335 whole entry): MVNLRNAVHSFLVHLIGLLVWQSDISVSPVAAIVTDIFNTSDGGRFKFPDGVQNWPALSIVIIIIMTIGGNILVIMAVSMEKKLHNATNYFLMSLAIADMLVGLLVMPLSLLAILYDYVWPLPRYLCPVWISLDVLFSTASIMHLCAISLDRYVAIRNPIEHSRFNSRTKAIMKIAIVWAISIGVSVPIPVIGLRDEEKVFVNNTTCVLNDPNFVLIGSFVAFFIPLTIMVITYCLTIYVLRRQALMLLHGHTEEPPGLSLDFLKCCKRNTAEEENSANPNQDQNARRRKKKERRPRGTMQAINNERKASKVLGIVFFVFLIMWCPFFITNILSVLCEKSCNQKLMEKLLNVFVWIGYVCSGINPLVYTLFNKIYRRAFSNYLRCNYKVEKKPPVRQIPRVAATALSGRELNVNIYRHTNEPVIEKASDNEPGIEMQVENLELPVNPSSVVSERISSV
# assay: Displacement of radioligand from human recombinant 5HT2C receptor
readout-name: Ki (µM)
Write down the numeric answer in µM and omit the unit.

Req: Recorded Ki for `CN1CCc2ccc(NS(=O)(=O)c3ccc(-c4ccc(F)c(Cl)c4)cc3)cc2CC1` , please?
Resp: 0.0316

Req: Param item = `CC(C)Nc1cc2c(cc1NS(=O)(=O)c1ccc(-c3ccc(Cl)cc3)cc1)CCN(C)CC2` ; retrieve measured Ki.
Resp: 0.00501

Req: Could you tell me which Ki is on file for `CN1CCc2ccc(NS(=O)(=O)c3ccc(-c4ccc(Cl)cc4)s3)cc2CC1` ?
Resp: 0.126

Req: Fill blank: measured Ki of the molecule `CCCCc1ccc(S(=O)(=O)Nc2ccc3c(c2)CCNCC3)cc1` is ____.
Resp: 0.0501

Req: Value lookup for Ki; key = `CCCCc1ccc(S(=O)(=O)Nc2ccc3c(c2)CCN(C)CC3)cc1`
Resp: 0.01

Req: Value lookup for Ki; key = `CN1CCc2cc(Br)c(NS(=O)(=O)c3ccc(-c4ccc(Cl)cc4)cc3)cc2CC1`
Resp: 0.126

Req: I am curious: what Ki value has been reported for `CC(C)c1cc2c(cc1NS(=O)(=O)c1ccc(-c3ccc(Cl)cc3)cc1)CCN(C)CC2` ?
Resp: 0.0158

Req: Returns the measured Ki for the input molecule. Input: `CCCCc1ccc(S(=O)(=O)Nc2ccc3c(c2)CN(C)C3)cc1`
Resp: 0.01

Req: Record request: Ki value, item `COc1cc2c(cc1NS(=O)(=O)c1ccc(-c3ccc(Cl)cc3)cc1)CCN(C)CC2`
Resp: 0.0398

Req: // returns reported Ki for input `CN1CCc2cc(Cl)c(NS(=O)(=O)c3ccc(-c4ccc(Cl)cc4)cc3)cc2CC1`
Resp: 0.0398

Req: Endpoint output: Ki of `Cc1cc2c(cc1NS(=O)(=O)c1ccc(-c3ccc(Cl)cc3)cc1)CCN(C)CC2` . Value?
Resp: 0.0794

Req: Could you tell me which Ki is on file for `CC(C)Oc1cc2c(cc1NS(=O)(=O)c1ccc(-c3ccc(Cl)cc3)cc1)CCN(C)CC2` ?
Resp: 0.0398

Req: Look up Ki: `Cc1ccc(-c2ccc(S(=O)(=O)Nc3ccc4c(c3)CCN(C)CC4)cc2)s1`
Resp: 0.0126

Req: Fill in: Ki of `CCCCc1ccc(S(=O)(=O)Nc2ccc3c(c2)CNCC3)cc1` is ___
Resp: 0.0316

Req: Given `CN1CCc2ccc(NS(=O)(=O)c3ccc(-c4ccc(Cl)cc4)cc3)cc2CC1` , state its recorded Ki.
Resp: 0.02

Req: # Ki lookup, item `Cc1cc(S(=O)(=O)Nc2ccc3c(c2)CCN(C)CC3)ccc1-c1ccc(Cl)cc1`
Resp: 0.0501

Req: Returns the measured Ki for the input molecule. Input: `Cc1noc(C)c1-c1ccc(S(=O)(=O)Nc2ccc3c(c2)CCN(C)CC3)cc1`
Resp: 0.398

Req: Which Ki value is on record for `CN1CCc2ccc(NS(=O)(=O)c3ccc(-c4ccc(C#N)cc4)cc3)cc2CC1` ?
Resp: 0.1

---

# test-target: D(3) dopamine receptor (Homo sapiens)
# Sequence (P35462 whole entry): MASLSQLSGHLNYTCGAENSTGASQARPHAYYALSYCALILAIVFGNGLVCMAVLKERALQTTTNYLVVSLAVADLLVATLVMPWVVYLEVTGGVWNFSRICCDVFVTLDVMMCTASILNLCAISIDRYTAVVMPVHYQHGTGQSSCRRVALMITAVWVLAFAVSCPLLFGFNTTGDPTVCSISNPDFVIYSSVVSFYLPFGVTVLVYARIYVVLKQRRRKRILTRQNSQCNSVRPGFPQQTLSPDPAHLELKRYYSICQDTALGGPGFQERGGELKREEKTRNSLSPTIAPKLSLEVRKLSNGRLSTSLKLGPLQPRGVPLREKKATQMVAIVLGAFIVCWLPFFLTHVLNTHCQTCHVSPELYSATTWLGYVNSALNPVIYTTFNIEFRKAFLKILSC
# assay: Displacement of [125I]iodosulpiride from human recombinant dopamine D3 receptor expressed in CHO cells
Just a reminder that ties go to false: only Ki strictly below 3 nM counts as true.

Req: Confirm or reject: Ki of `CCCCc1ccc(S(=O)(=O)Nc2ccc3c(c2)CCN(C)CC3)cc1` lies strictly below 3 nM
Resp: true

Req: Just wondering, is Ki of `CC(C)Oc1cc2c(cc1NS(=O)(=O)c1ccc(-c3ccc(Cl)cc3)cc1)CCN(C)CC2` below 3 nM?
Resp: true

Req: For this molecule, is Ki lower than 3 nM? `CN1CCc2cc(Br)c(NS(=O)(=O)c3ccc(-c4ccc(Cl)cc4)cc3)cc2CC1`
Resp: false

Req: Does `CN1CCc2cc(Cl)c(NS(=O)(=O)c3ccc(-c4ccc(Cl)cc4)cc3)cc2CC1` have Ki strictly under 3 nM?
Resp: true

Req: Hello, is Ki of the following molecule strictly smaller than 3 nM? `CN1CCc2ccc(NS(=O)(=O)c3ccc(-c4ccc(Cl)cc4)s3)cc2CC1`
Resp: false
